tested on: SNB-75 CNS; test: NCI-60 one-dose screen, 48 h (100 = growth as untreated, 0 = no growth, -100 = all killed); details: 10 µM unless noted
About 83,000 compounds went through this panel and 20% of them were active in at least one assay; those are over-represented in the sample as a whole.
Entries and their growth values follow.

# Molecule, Readout Unit, growth
records = [
    ("COc1ccc(Cl)cc1NC(=O)c1cc2c([nH]1)-c1nc(NC(=O)C(C)C)sc1CC2", "%", 92.2),
    ("COc1cc(C(=O)N2CCN(C(=O)c3cc(OC)c(OCc4ccccc4)cc3N)CC2)c(N)cc1OCc1ccccc1", "%", 108),
    ("CC1OC(n2c3ccccc3c3c4c(c5c6ccccc6[nH]c5c32)C(=O)N(CCN[C@@H]2CCC[C@H]2N)C4=O)CC(O)C1O (stereo not given in full)", "%", 12.5),
    ("Cc1cc2nc(-c3c(N)ncc(C#N)c3-c3ccc(Cl)cc3)[nH]c2cc1C", "%", 56.6),
    ("CC(CN(C)C)CN1c2ccccc2CCc2ccccc21 (stereo not given)", "%", 66.9),
    ("O=C1c2ccccc2OC=C(c2ccccc2)N1CCCCN1CCCCC1", "%", 76.1),
    ("CC(=O)Nc1ccc([I+]c2ccc([N+](=O)[O-])cc2)cc1", "%", 90.5),
    ("O=C(O)c1ccc(-n2cc(/C=N/Nc3ccc(F)cc3)c(-c3cccc(C(F)(F)F)c3)n2)cc1", "%", 88.4),
    ("CC(C)CNCC(=O)Nc1ccc(Cc2ccc(NC(=O)CNCC(C)C)cc2)cc1", "%", 65.7),
    ("Nn1c(CN2CCN(c3cc4c(cc3F)c(=O)c(C(=O)O)cn4C3CC3)CC2)n[nH]c1=S", "%", 86.4),
    ("COc1ccc(-c2cnc(-c3ccc(F)cc3)[nH]2)cc1", "%", 98.6),
    ("Cc1cn(-c2cc(C(=O)Nc3cccc(-n4ccc5c(NC(=O)c6ccccc6)nccc54)c3)cc(C(F)(F)F)c2)cn1", "%", 27.2),
    ("N#Cc1c(N)nc(Cl)c(C#N)c1C(=O)c1ccccc1", "%", 50),
    ("O=C(Nc1ccccc1F)Nc1ccccc1Cl", "%", 85.7),
    ("O=C(CSc1nnc(-c2ccc(Cl)cc2)o1)Nc1ccc(C(=O)/C=C/c2ccccc2)cc1", "%", 90.4),
    ("S=c1n(CNc2ccc(Cl)nn2)nc(-c2cc(Cl)cc(Cl)c2Cl)n1/N=C/c1ccc(Cl)cc1", "%", 98.5),
    ("CN1CCN(CC(O)COc2c(Br)c(Br)c(Br)c3c2OC(C)(C)C3)CC1 (stereo not given)", "%", 90.7),
    ("CN(CCNCc1ccccn1)CCNCc1ccccn1", "%", 12.9),
    ("COc1ccc(-c2nnc(NC(=O)CN3CCN(c4cc5c(cc4F)c(=O)c(C(=O)O)cn5C4CC4)CC3)s2)cc1OC", "%", 90.8),
    ("CC1(C)N=C(N)N=C(N)N1c1ccc(F)c(C(F)(F)F)c1", "%", 59),
]

* * *

test system: IGROV1 ovarian; test: NCI-60 one-dose screen, 48 h; conditions: 10 µM unless noted
This is part of a sample that, as a whole, favours compounds with a hit. Of some 83,000 tested, about 20% had one in any assay. Active and inactive are the calls of the source. Rule for the calls: active = growth percent below 10; inactive = the rest.
Outcomes: active, inactive

# Compound, Qualitative Label
measured = [
    ("COc1cccc(-c2nc3sccn3c2-c2ccnc(NCCNC(=O)c3ccccc3)n2)c1", "inactive"),
    ("COc1cc(-c2nc3ccccc3s2)ccc1OCc1nc2n(n1)S(=O)(=O)c1ccccc1N2C", "inactive"),
    ("Nc1nc(-c2cc3c(cc2Cl)NC(=O)/C3=C/c2ccc(Cl)cc2)cs1", "inactive"),
    ("O=c1c2ccccc2sc2c(N3CCCC3)nc3ccccc3c12", "inactive"),
    ("O=c1nc(N2CCOCC2)oc2c(-c3cccc4ccccc34)cccc12", "inactive"),
    ("Nc1ncc(-c2ccc3ncnc(Nc4ccc(F)c(Cl)c4)c3c2)cn1", "active"),
    ("N#Cc1c(N)nc2c(c1N)C(c1ccc(Cl)cc1)C1=C(CCCC1=O)N2c1sc2c(c1C#N)CCCC2 (stereo not drawn)", "inactive"),
    ("C#CC(=O)/C=C/CCCCCCC#CC(=O)CCC(=O)C#CCCCCCC/C=C/C(=O)C#C", "active"),
    ("Cc1cn(-c2nc3c(c(NCc4ccccc4)n2)COCC3)c2cccc(C(N)=O)c12", "inactive"),
    ("CCC1S/C(=N\\N=C(/C)c2cc3ccccc3o2)N(c2ccccc2)C1=O (stereo not drawn)", "active"),
    ("O=C(O)c1ccc(-c2nn(-c3ccc(C(=O)O)cc3)cc2/C=N/Nc2c(F)c(F)cc(F)c2F)cc1", "inactive"),
    ("CCCC(=O)Oc1ccc(/C(=C(\\C)c2ccc(Cl)cc2)c2ccc(OCCN(CC)CC)cc2)cc1", "inactive"),
    ("Cc1ccc(/C=C2/C(=O)Nc3cc(Cl)c(-c4csc(N)n4)cc32)cc1", "inactive"),
    ("Fc1ccc(Nc2ncnc3ccc(-c4cn[nH]c4)cc23)cc1Cl", "active"),
    ("CC(C)CCC[C@@H](C)[C@H]1CC[C@H]2[C@@H]3CC=C4N(c5ccccc5)C(=O)CC[C@]4(C)[C@H]3CC[C@]12C", "inactive"),
    ("CN[C@@H](CCCNC(N)=NC/C=C(/C)CCC=C(C)C)C(=O)N(C)[C@@H](CCCNC(N)=NCC=C(C)C)C(=O)N[C@H](C)[C@H](OS(=O)(=O)O)c1ccc(OS(=O)(=O)O)c(COS(=O)(=O)O)c1", "inactive"),
    ("O=C(Nc1ccc(-n2ccc3c(NC(=O)c4ccccc4)nccc32)cc1)Nc1cccc(C(F)(F)F)c1", "inactive"),
    ("Cc1ccccc1C[P+](c1ccccc1)(c1ccccc1)c1ccccc1", "inactive"),
    ("O=C(O)c1ccc(-n2cc(/C=N/Nc3ccccc3F)c(-c3ccc(O)cc3)n2)cc1", "inactive"),
    ("CCOc1ccc(-n2c(-c3cc(OC)c(OC)c(OC)c3)nnc2-c2ccc(OC)cc2N)cc1", "inactive"),
    ("O=C(O)c1ccc2nc(-c3ccc(OCCCCCOc4ccc(-c5nc6ccc(C(=O)O)cc6[nH]5)cc4)cc3)[nH]c2c1", "inactive"),
    ("COC(=O)c1oc2c(C(C)=O)c(OCCCN(C)C)ccc2c1C", "inactive"),
    ("COc1ccccc1N1CCN(CCCOc2ccc(OCCCN3CCN(c4ccccc4OC)CC3)c(C(=O)c3cc(OC)c(OC)c(OC)c3)c2)CC1", "inactive"),
    ("COc1cc(Cn2cc3c(c2)-c2onc(CO)c2CC3)cc(OC)c1OC", "inactive"),
    ("C=C1C(=O)O[C@H]2[C@H]1CC/C(COC(=O)c1ccc(C#N)cc1)=C\\CC[C@@]1(C)O[C@@H]21", "active"),
    ("CCC1S/C(=N\\N=C(/C)c2ccco2)N(c2ccccc2)C1=O (stereo not drawn)", "active"),
    ("C#CCn1c(-c2cc(OC)c(OC)cc2Br)nc(-c2ccccc2)c1-c1ccccc1", "inactive"),
    ("CCOC(=O)C1CN(Cc2ccccc2)C(=O)C1=O (stereo not drawn)", "inactive"),
    ("CC(C)(C)OC(=O)N1CC(Cn2cc(C(F)(F)F)c3c(Cl)ncnc32)C1", "active"),
    ("NC(CCCC(N)C(=O)c1ccccc1)C(=O)O (stereo not drawn)", "inactive"),
    ("COc1cc(/C=C/C(=O)c2c(C)[n+]([O-])c3ccccc3[n+]2[O-])ccc1O", "inactive"),
    ("COc1ccc2c(c1)O/C(=C/c1ccc(OCC(=O)Nc3ccc(S(N)(=O)=O)cc3)cc1)C2=O", "inactive"),
    ("Cc1cccc(CC(=O)c2ccccc2)n1", "inactive"),
    ("COc1ccc(C2=NN(C(=O)COc3ccc(Cl)cc3)C(O)(c3cc(F)c(Cl)cc3Cl)C2)cc1 (stereo not drawn)", "inactive"),
    ("COc1ccc(-c2ccc(NC(=O)Nc3cccc(C(F)(F)F)c3)c(C)n2)cc1", "inactive"),
    ("O=C1OC(c2ccc(-c3ccccc3)cc2)=C/C1=C/C=C/c1ccccc1", "inactive"),
    ("COc1ccc(/C(=C/c2cc(OC)c(OC)c(OC)c2)[N+](=O)[O-])cc1", "active"),
    ("c1coc(CSc2ncnc3nc[nH]c23)c1", "inactive"),
]
